Ref: ChEMBL document CHEMBL3102706

Below, each of the molecules is paired with its reported Activity value.
Assay: Antioxidant activity assessed as EDTA equivalent of chelating effect after 10 mins by spectrophotometric analysis
Assay type: functional
Note: unit mg/g is implicit; provide only the numeric part.

Some solved cases for reference:
{"MOLECULE": "Cc1cc(C(C)(C)C)c(O)c(C(C)(C)C)c1 [BUTYLATED HYDROXYTOLUENE]", "RECORDED NUMBER": 15.4}
{"MOLECULE": "C[C@@H]1O[C@@H](OC[C@H]2O[C@@H](Oc3c(-c4ccc(O)c(O)c4)oc4cc(O)cc(O)c4c3=O)[C@H](O)[C@@H](O)[C@@H]2O)[C@H](O)[C@H](O)[C@H]1O", "RECORDED NUMBER": 18.5}
{"MOLECULE": "C=CCC(CC=C)(CC=C)c1ccc(CCCCCCCCC)cc1O", "RECORDED NUMBER": 8.4}
{"MOLECULE": "CC(C)(C)c1cc(CCC(=O)O)cc(C(C)(C)C)c1F", "RECORDED NUMBER": 4.5}

Continue with the molecule presented below.
### Prompt Using the record for `CC(C)C[C@H](NC(=O)[C@@H](O)C[C@H](N)CN)C(N)=O` , state its measured Activity.
### Response 11.9
